biological target: T1, mature plasmepsin 4 of Plasmodium berghei (PbPM4), auto-matured from semi-proPbPM4 (Plasmodium berghei ANKA); test: enzyme inhibition kinetics (Ki of competitive inhibition); initial cleavage velocities of a chromogenic peptide substrate at varied inhibitor concentration, spectrophotometric; proPbPM4 pre-incubated in 100 mM sodium citrate pH 5.0, 37°C, 5 min; tight-binding or non-tight-binding competitive fit; settings: both partners purified
T1 construct: also called mature PbPM4; FV plasmepsin 4; source: converted to mature enzyme by 5 min pre-incubation in sodium citrate pH 5.0 at 37°C
Where no end group is shown, it is not given here. [ ]: non-standard residue; d: D form. Nle = CCCC[C@H](N)C(=O)O
measurement.kind: Ki (nM)
Enter your answer as a number in nM; do not include the unit.

Query: Look at this binder and give its reported Ki. KP[Nle]S[Nle]LQI (also: reduced amide Ψ[CH2-NH] between Nle5 and Leu6) [compound 3 (KPnLSnLΨLQI), peptidomimetic inhibitor designed for PfPM2]
Result: 375
